Answer each item with its documented cell viability.
Tested on: NOMO1
PROTOCOL NOTES: cell viability relative to DMSO control; higher = less cytotoxic
STATED CONDITIONS: HPLM + 10% dialyzed FBS; 48 h; 1.71 µM

Qu. What cell viability appears in the records for this compound with NOMO1? O=C(Nc1ccccc1-c1cn2c(CN3CCNCC3)csc2n1)c1cnc2ccccc2n1
Ans. 66.6%

Qu. Value wanted: cell viability (NOMO1) of entry CC(C)C(=O)Oc1ccc(CO)cc1[C@H](CCN(C(C)C)C(C)C)c1ccccc1
Ans. 88.9%

Qu. Entry C\C1=C(\C=C(\C#N)C(=O)N1)C2=CC=NC=C2 , system NOMO1: what cell viability was measured?
Ans. 131%

Qu. Missing value: cell viability, NOMO1, entry CC(C)(C)c1[nH]cnc1/C=c1\[nH]c(=O)/c(=C/c2ccccc2)[nH]c1=O . Fill in?
Ans. 32.5%

Qu. Form: Entry = COc1cc(OC)c(/C=C/[S+](=O)([O-])Cc2ccc(OC)c(NCC(=O)[O][Na])c2)c(OC)c1 | System = NOMO1 | cell viability = ____
Ans. 47.7%

Qu. Observed cell viability on NOMO1 for CC(C)=CC[C@@H](O)C/1=C/C(=O)C2=C(O)C=CC(=C2C1=O)O , please.
Ans. 85.1%

Qu. Item Cc1cnc(-c2cc(N3CCN(C(=O)CC[S+](C)(=O)[O-])CC3)ncc2Cl)c(C)c1 with NOMO1 - cell viability?
Ans. 129%

Qu. Form field: cell viability recorded for CN(C)[C@H]\1[C@@H]2C[C@H]3C(=C(O)\[C@]2(O)C(=O)\C(=C1O)C(N)=O)/C(=O)C4=C(O)C=CC=C4[C@@]3(C)O with NOMO1 (enter value)
Ans. 95.1%

Qu. Give the reported cell viability for COc1ncc(-c2ccc3nccc(-c4ccnnc4)c3c2)cc1N[S+](=O)([O-])c1ccc(F)cc1F (system: NOMO1).
Ans. 45.8%

Qu. Given the entry FC(F)c1nc2ccccc2n1-c1nc(N2CCOCC2)nc(N2CCOCC2)n1 , what cell viability was observed with NOMO1?
Ans. 36.3%

Qu. Form field: cell viability recorded for CNC(=O)c1ccc(N2C(=S)N(c3ccc(C#N)c(C(F)(F)F)c3)C(=O)C23CCC3)cc1F with NOMO1 (enter value)
Ans. 107%

----------
Test system: P12-Ichikawa
PROTOCOL NOTES: AUC of viability dose-response curve (% viability x log10 dose units); higher = less sensitive
STATED CONDITIONS: RPMI 5 mM glucose + 10% FBS; 48 h
REPORTED METRIC: AUC of viability dose-response curve
Lab note: record just the number, no unit beside it.

Qu. Dear colleague, I am looking for the recorded AUC of viability dose-response curve of the following compound: COc1cc2ncnc(Nc3cc(Br)c(O)c(Br)c3)c2cc1OC
Ans. 469

Qu. What AUC of viability dose-response curve value was documented for this compound, C=C[C@H]1CN2CC[C@H]1C[C@H]2[C@H](O)c1ccnc2ccc(OC)cc12 ?
Ans. 466

Qu. Quick one: AUC of viability dose-response curve of Cc1cc(C(C)(C)C)c(O)c(C)c1CC1=NCCN1 ?
Ans. 444

Qu. For the compound CCC(=O)NCC[C@@H]1CCc2ccc3c(c21)CCO3 , what AUC of viability dose-response curve is on record?
Ans. 455

Qu. Given the compound COCCCN1CCC(NC(=O)c2cc(Cl)c(N)c3c2OCC3)CC1 , what is its reported AUC of viability dose-response curve?
Ans. 467

Qu. Given the entry S=P(N1CC1)(N1CC1)N1CC1 , report its measured AUC of viability dose-response curve.
Ans. 470

Qu. // AUC of viability dose-response curve lookup, key: Nc1nc(Cl)nc2c1ncn2[C@H]1C[C@H](O)[C@@H](CO)O1
Ans. 254

Qu. // lookup AUC of viability dose-response curve for C[C@@H]1[C@H](O)[C@@H](C)/C=C/C=C/C=C/C=C/C=C/C=C/C=C/[C@H](O[C@@H]2O[C@H](C)[C@@H](O)[C@H](N)[C@@H]2O)C[C@@H]2O[C@](O)(C[C@@H](O)C[C@@H](O)[C@H](O)CC[C@@H](O)C[C@@H](O)CC(=O)O[C@H]1C)C[C@H](O)[C@H]2C(=O)O
Ans. 458

----------
For each record, write down the corresponding cell viability.
System: NOMO1
PROTOCOL NOTES: cell viability relative to DMSO control; higher = less cytotoxic
STATED CONDITIONS: RPMI 5 mM glucose + 10% FBS; 48 h; 0.0632 µM
Report as a plain number; the unit % is understood.

Qu. Given the molecule COc1cc2ncnc(Nc3ccc(F)c(Cl)c3)c2cc1NC(=O)/C=C/CN1CCCCC1 , what is its reported cell viability?
Ans. 98.4

Qu. Item O=C(O)C1=NC(C(=O)O)CC(/C=C/N2c3cc(O)c(OC4OC(CO)C(O)C(O)C4O)cc3CC2C(=O)O)=C1 (configuration not stated) has what recorded cell viability?
Ans. 119

Qu. Record request: cell viability value, item CN1C[C@H]2c3ccccc3Oc3ccc(Cl)cc3[C@@H]2C1
Ans. 91.3

Qu. Which cell viability value is on record for N=C(NCCCCCCNC(=N)NC(=N)Nc1ccc(Cl)cc1)NC(=N)Nc1ccc(Cl)cc1 ?
Ans. 96.1

Qu. Value lookup for cell viability; key = O=C(O)c1ccc2c(c1)nc(Nc1cccc(Cl)c1)c1ccncc12
Ans. 94.6

Qu. What value of measured cell viability is listed for C\C1=C(\C=C(\C#N)C(=O)N1)C2=CC=NC=C2 ?
Ans. 109

Qu. Which cell viability value is on record for CN(C)[C@H]\1[C@@H]2C[C@H]3C(=C(O)\[C@]2(O)C(=O)\C(=C1O)C(N)=O)/C(=O)C4=C(O)C=CC=C4[C@@]3(C)O ?
Ans. 108

Qu. Given the molecule CCN1\C=C(\C(O)=O)C(=O)C2=CC=C(C)N=C12 , what is its reported cell viability?
Ans. 103

Qu. Form field: reported cell viability of N[C@H](CSC(c1ccccc1)(c1ccccc1)c1ccccc1)C(=O)O
Ans. 123

Qu. What value of cell viability has been reported for the following molecule? C[C@@]12C[C@@]3(O)O[C@@H](O1)[C@]1(COC(=O)c4ccccc4)[C@H]3C[C@@]12O[C@@H]1O[C@H](CO)[C@@H](O)[C@H](O)[C@H]1O
Ans. 114

Qu. May I ask what cell viability has been recorded for C[N]1C=C(C2=C1C=CC=C2)\C3=C(\C(=O)NC3=O)C4=C5CC(CN)CC[N]5C6=C4C=CC=C6 (configuration not stated) ?
Ans. 102

Qu. Query (molecule): Cc1ccc([S+](=O)([O-])N[C@@H](Cc2ccccc2)C(=O)CCl)cc1 ; field requested: cell viability
Ans. 97.9

Qu. What does the record list as cell viability for CC[C@H](C)[N]1C=C(C)C2=C1C=C(C=C2C(=O)NC\C3=C(C)\C=C(\C)NC3=O)C4=CC=C(N=C4)N5CCNCC5 ?
Ans. 122

Qu. What cell viability value was documented for this molecule, Cc1cc2c(F)c(Oc3ncnn4cc(OC[C@@H](C)O)c(C)c34)ccc2[nH]1 ?
Ans. 98.2

Qu. Data request, read-out cell viability, for CNC1CCC(N(Cc2cccc(-c3ccncc3)c2)C(=O)c2sc3c(F)ccc(F)c3c2Cl)CC1 (configuration not stated)
Ans. 118

Qu. Report cell viability for CC(C)C[C@H](NC(=O)[C@H](CCc1ccccc1)NC(=O)CN1CCOCC1)C(=O)N[C@@H](Cc1ccccc1)C(=O)N[C@@H](CC(C)C)C(=O)[C@@]1(C)CO1 please.
Ans. 6.13

Qu. Given the entry CN1CCCN=C1/C=C/c1cccs1.O=C(O)c1cc2ccccc2c(Cc2c(O)c(C(=O)O)cc3ccccc23)c1O , report its measured cell viability.
Ans. 114

----------
Tested on: P12-Ichikawa
PROTOCOL NOTES: cell viability relative to DMSO control; higher = less cytotoxic
STATED CONDITIONS: RPMI 5 mM glucose + 10% FBS; 48 h; 46.1 µM
REPORTED METRIC: cell viability (%)
Numbers only here, please. The scale is %.

Qu. Could you share which cell viability value was measured for NC/1=N/C2=C([NH]C=N2)C(=S)N1 ?
Ans. 21.2

Qu. Need cell viability, item COc1ccc(C2CNC(=O)C2)cc1OC1CCCC1 (stereo not given)
Ans. 93

Qu. Tell me the measured cell viability of COc1ccc(-c2ccc3c(N4CCOC[C@@H]4C)nc(N4CCOC[C@@H]4C)nc3n2)cc1CO , please.
Ans. 18.6

Qu. State the recorded cell viability for this entry: C[C@@H]1[C@H](O)[C@@H](C)/C=C/C=C/C=C/C=C/C=C/C=C/C=C/[C@H](O[C@@H]2O[C@H](C)[C@@H](O)[C@H](N)[C@@H]2O)C[C@@H]2O[C@](O)(C[C@@H](O)C[C@@H](O)[C@H](O)CC[C@@H](O)C[C@@H](O)CC(=O)O[C@H]1C)C[C@H](O)[C@H]2C(=O)O
Ans. 123

Qu. Recorded cell viability of CCC(C)(C)c1ccc(CC(C)CN2C[C@@H](C)O[C@@H](C)C2)cc1 (stereo not given in full) , please.
Ans. 88

Qu. For the molecule O=C(O)c1ccc2c(c1)nc(Nc1cccc(Cl)c1)c1ccncc12 , what cell viability is on record?
Ans. 70.2

Qu. # lookup: cell viability of C/C=C1\C2C=C(C)CC1(N)c1ccc(=O)[nH]c1C2 (stereo not given)
Ans. 92.8

Qu. Which cell viability value is on record for COc1cc2ncnc(Nc3ccc(F)c(Cl)c3)c2cc1NC(=O)/C=C/CN1CCCCC1 ?
Ans. 75.2

Qu. For the molecule shown here, Cn1c(CNc2ccc(C(=N)N)cc2)nc2cc(C(=O)N(CCC(=O)O)c3ccccn3)ccc21 , give the reported cell viability.
Ans. 120

Qu. Query: cell viability; subject: C[C@@H]\1CC(=O)N\N=C1C2=CC=C(NN=C(C#N)C#N)C=C2
Ans. 15.6
